protocol_notes: Volume of distribution at steady state in Sprague-Dawley rat at 2 mg/kg, iv
Type: ADME, organism-based
Design: dose 2 mg/kg, route intravenous
experimental_conditions: in vivo, read-out: Vdss
assay_endpoint: Vd (L/kg)
Report the value in L/kg with no unit label.

compound_structure: CC(=O)N1CCC(c2nc3ccccc3nc2OC2CN(c3ccc4ccccc4n3)C2)CC1
u: L/kg
Vd: 1.55

compound_structure: CC(=O)N1CCC(c2nccnc2OC2CN(c3ccc4ccccc4n3)C2)CC1
u: L/kg
Vd: 1.55

We next turn to a different compound, shown below.
compound `OCC1CCN(c2nccnc2OC2CN(c3ccc4ccccc4n3)C2)CC1` , Vd observed: 4.81
